TGT: Retinaldehyde dehydrogenase 3 (Homo sapiens) (UniProt P47895)
PROTOCOL: qHTS for Inhibitors of the Aldehyde Dehydrogenase Family (ALDH1A3) Primary screen (AID 2061315);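 further: plate controls were DMSO vehicle for no effect and reference inhibitor for full effect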
STATED_CONDITIONS: ALDH inhibition qHTS; series mostly up to 56 µM
Inconclusive results are not listed. Calls of active or inactive are those of the source. The call rests on the fitted dose curve; in most records, active means well fitted inhibition curve with a large enough effect; inconclusive means small, poorly fitted or top-dose-only effect; inactive means no such curve, though single readings can be large or run the other way.
PROPERTY_NAME: activity change, negative = inhibition

Below: 5 compounds and their reported activity change, negative = inhibition.
[[record]]
compound = "COc1cc(C(=O)OC[C@@]2(O)CO[C@@H](O[C@H]3[C@H](Oc4ccc(C(=O)O)cc4OC)O[C@H](CO)[C@@H](O)[C@@H]3O)[C@@H]2O)ccc1O"
tgt = "Retinaldehyde dehydrogenase 3 (Homo sapiens) (UniProt P47895)"
reported = "inactive"

[[record]]
compound = "CC(C)[C@@H](C)/C=C/[C@@H](C)[C@H]1CC[C@H]2C3=CC=C4C[C@@H](O)CC[C@]4(C)[C@H]3CC[C@]12C"
tgt = "Retinaldehyde dehydrogenase 3 (Homo sapiens) (UniProt P47895)"
reported = "inactive"

[[record]]
compound = "CC(C)CC1NC(=O)C(C)NC(=O)C(CC(C)C)OC(=O)CCCNC1=O (stereo unspecified)"
tgt = "Retinaldehyde dehydrogenase 3 (Homo sapiens) (UniProt P47895)"
reported = "inactive"

[[record]]
compound = "COc1cc(-c2cc(-c3cccc(O)c3)cnc2N)cc(OC)c1OC"
tgt = "Retinaldehyde dehydrogenase 3 (Homo sapiens) (UniProt P47895)"
reported = "inactive"

[[record]]
compound = "CC1(C)CC[C@]2(C(=O)O[C@@H]3O[C@H](CO)[C@@H](O)[C@H](O)[C@H]3O)CC[C@]3(C)C(=CCC4[C@@]5(C)C[C@H](O)[C@H](O[C@@H]6O[C@H](C(=O)O)[C@@H](O)[C@H](O)[C@H]6O)[C@@](C)(CO)C5CC[C@]43C)C2C1 (stereo partly specified)"
tgt = "Retinaldehyde dehydrogenase 3 (Homo sapiens) (UniProt P47895)"
reported = "11% [at 11.2 µM] (inactive)"


# evaluate next
input: What does the data say about its activity change, negative = inhibition? Entry: C[C@]12CC[C@@H]3c4ccc(O)cc4CC[C@H]3[C@@H]1C[C@@H](O[C@@H]1O[C@H](C(=O)O)[C@@H](O)[C@H](O)[C@H]1O)[C@@H]2O
output: inactive

###

PROTOCOL: BET inhibitor-based combinations targeting novel dependencies in MECOM-rearranged (r) AML: OCI-AML3 cell line (AID 2202232); further: potency means the concentration at half of the fitted maximal effect; nearly all actives have a fitted effect of over 35% in size
STATED_CONDITIONS: CellTiter-Glo luminescence, 48 h; OCI-AML3 viability; series mostly up to 46 µM
Inconclusive results are not listed. Activity calls are given as the source filed them. The call rests on the fitted dose curve; in most records, active means well fitted inhibition curve with a large enough effect; inconclusive means small, poorly fitted or top-dose-only effect; inactive means no such curve, though single readings can be large or run the other way.
PROPERTY_NAME: Potency

[[record]]
cpd_smiles = "C[C@H]1COC2=C1C(=O)C(=O)c1c2ccc2c1CCCC2(C)C"
property_name = "Potency"
reported = "20900 nM (active)"

[[record]]
cpd_smiles = "Cc1ccc(S(=O)(=O)Cc2nc(-c3ccc(C(=O)NCc4cccnc4)cc3)oc2C)cc1"
property_name = "Potency"
reported = "11.8 nM (active)"

[[record]]
cpd_smiles = "S=c1nc[nH]c2nc[nH]c12"
property_name = "Potency"
reported = "1860 nM (active)"


// switching to the query compound
input: Looking for the measured Potency of O=C1NC(=O)C(c2cnc3ccccn23)=C1c1cn2c3c(cccc13)CN(C(=O)N1CCOCC1)CC2 , can you help?
output: 3320 nM (active)
